Here the recorded EC50 is given for each entry.
test system: THP-1 cells; assay: Measurement of IL-1β production, hTRF protocol (second alternative procedure), THP-1 cells; assay type: cell-based, human; conditions: Homo sapiens, THP-1, IL-1β production, human; read-out: NLRP3 hILIB EC50
Enter your answer as a number in nM; do not include the unit.

Please review the entries below; each comes with its answer.
SMILES STRING	MEASUREMENT UNITS	EC50
C[C@H](O)Cn1cc2c(N)nc3cc(-c4cc[nH]n4)ccc3c2n1	nM	190
Nc1nc2cc(-c3cc[nH]n3)ccc2c2nn(CCNC(=O)c3cc(Cl)ccn3)cc12	nM	250
Cc1nc(C(=O)NCCn2cc3c(n2)c(N)nc2cc(-c4cc[nH]n4)ccc23)ccc1C(F)(F)F	nM	310

Please find the next molecule below.
State its EC50 on THP-1 cells: Nc1nc2cc(-c3cc[nH]n3)ccc2c2cn(CCNCc3ccc(Cl)cc3)nc12
2630

* * *

biological target: TLR8 (Homo sapiens); construct: human HEK-Blue cells co-expressing a TLR7 or TLR8 gene; assay: In vitro human TLR8 binding reporter assay (HEK-Blue, NF-kB/AP1-inducible SEAP); type: cell-based; conditions: activity range class, read-out: TLR8 Agonist EC50
Sequence (Q9NR97 27-1041): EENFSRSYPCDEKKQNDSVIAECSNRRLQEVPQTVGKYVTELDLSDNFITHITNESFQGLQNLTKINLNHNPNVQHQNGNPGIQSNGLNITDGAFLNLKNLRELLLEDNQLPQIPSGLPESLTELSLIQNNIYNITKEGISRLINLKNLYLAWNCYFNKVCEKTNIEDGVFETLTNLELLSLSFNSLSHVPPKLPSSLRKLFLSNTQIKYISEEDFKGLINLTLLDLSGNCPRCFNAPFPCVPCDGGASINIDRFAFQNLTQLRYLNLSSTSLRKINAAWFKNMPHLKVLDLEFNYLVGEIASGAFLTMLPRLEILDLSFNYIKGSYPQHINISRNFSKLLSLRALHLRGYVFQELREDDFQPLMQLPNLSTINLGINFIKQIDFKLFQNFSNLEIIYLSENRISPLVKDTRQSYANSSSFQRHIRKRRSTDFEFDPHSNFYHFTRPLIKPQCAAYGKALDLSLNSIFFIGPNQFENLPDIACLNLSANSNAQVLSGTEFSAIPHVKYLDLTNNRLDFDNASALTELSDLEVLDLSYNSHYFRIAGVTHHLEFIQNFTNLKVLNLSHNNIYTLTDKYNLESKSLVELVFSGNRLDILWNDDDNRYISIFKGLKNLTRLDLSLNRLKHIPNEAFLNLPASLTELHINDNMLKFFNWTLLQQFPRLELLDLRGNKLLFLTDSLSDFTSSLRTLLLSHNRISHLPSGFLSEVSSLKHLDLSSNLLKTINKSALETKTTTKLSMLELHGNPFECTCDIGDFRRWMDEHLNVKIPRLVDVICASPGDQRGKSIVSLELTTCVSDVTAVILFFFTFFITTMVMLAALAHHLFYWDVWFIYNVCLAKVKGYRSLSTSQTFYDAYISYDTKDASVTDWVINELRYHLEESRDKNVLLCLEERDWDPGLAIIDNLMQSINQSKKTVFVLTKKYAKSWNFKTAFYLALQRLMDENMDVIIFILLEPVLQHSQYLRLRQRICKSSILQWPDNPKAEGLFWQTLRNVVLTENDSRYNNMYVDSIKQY
Here the recorded EC50 is given for each entry.

May I ask what EC50 has been recorded for Nc1nc2cc(-c3cc[nH]n3)ccc2c2nn(CC3CC(F)(F)C3)cc12 ?
> 100 µM

Now give it for Nc1nc2cc(-c3cc[nH]n3)ccc2c2cn(CCNC(=O)c3ccc(F)c(Cl)n3)nc12 too.
1 to 20 µM

Now give it for Nc1nc2cc(-c3cc[nH]n3)c(Cl)cc2c2cn(CCNC(=O)c3ccc(F)cn3)nc12 too.
20 to 100 µM

Now give it for Cc1nc(C(=O)NCCn2cc3c(n2)c(N)nc2cc(-c4cc[nH]n4)ccc23)co1 too.
> 100 µM

Now give it for CC(C)(F)C(=O)NCCn1nc2c(N)nc3cc(-c4ccn[nH]4)ccc3c2n1 too.
> 100 µM

Now give it for Nc1nc2cc(-c3cc[nH]n3)ccc2c2cn(CCCOc3cccc(F)c3)nc12 too.
> 100 µM

Now give it for Nc1nc2cc(-c3cc[nH]n3)ccc2c2nn(C[C@@H]3CCCO3)cc12 too.
> 100 µM

* * *

test system: THP-1 cells; experiment: Measurement of IL-1β production, hTRF protocol (second alternative procedure), THP-1 cells; format: cell-based, human; details: Homo sapiens, THP-1, IL-1β production, human; read-out: NLRP3 hILIB EC50
Here the recorded log10 EC50 is given for each entry.
Values below are the log10 of the recorded EC50, with nM as the unit.

Please review the entries below; each comes with its answer.
MOLECULE	log10 EC50
CC(C)(C)OC(=O)NCCn1cc2c(n1)c(N)nc1cc(-c3cc[nH]n3)ccc12 [Example 118]	2.93
Nc1nc2cc(-c3ccn[nH]3)ccc2c2sc(CCNC(=O)c3ccccn3)nc12 [Example 136]	2.20
Nc1nc2cc(-c3cc[nH]n3)ccc2c2cn(CCNC(=O)c3ncc(Cl)cc3F)nc12 [Example 85]	2.60

Please find the next molecule below.
May I ask what log10 EC50 has been recorded for Nc1nc2cc(-c3cc[nH]n3)ccc2c2cn(CCNC(=O)c3ccccc3F)nc12 [Example 74] ?
2.40
